Listed molecules paired with reported inhibition
System: Ribosomal protein S6 kinase alpha-2 (Homo sapiens);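 further: reported value is the mean percent inhibition of RSK3, from the GSK PKIS screening panel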
Measurement parameters: at 0.1 µM
Property label: inhibition

INSERT INTO results (molecule, system, recorded_result) VALUES
  ('Nc1nccc(-c2c(-c3ccc(F)cc3)ncn2C2CCC(O)CC2)n1 (stereo not drawn)', 'Ribosomal protein S6 kinase alpha-2 (Homo sapiens)', '-0.62%'),
  ('CS(=O)(=O)CCNCc1ccc(-c2ccc3ncnc(Nc4ccc(OCc5ccccc5)c(Br)c4)c3c2)o1', 'Ribosomal protein S6 kinase alpha-2 (Homo sapiens)', '1.5%'),
  ('NC(=O)Cc1ccccc1Oc1nccc(-c2c(-c3ccc(F)cc3)ncn2C2CCNCC2)n1', 'Ribosomal protein S6 kinase alpha-2 (Homo sapiens)', '1.2%'),
  ('COc1cccc(/C=N/Nc2ncnc3c2cnn3-c2cccc(OC)c2)c1', 'Ribosomal protein S6 kinase alpha-2 (Homo sapiens)', '1.64%'),
  ('NCc1ccc(-n2c(-c3nonc3N)nc3cnccc32)cc1', 'Ribosomal protein S6 kinase alpha-2 (Homo sapiens)', '55.5%'),
  ('COc1ccc(-c2ccc3c(NC(=O)C4CC4)n[nH]c3n2)cc1', 'Ribosomal protein S6 kinase alpha-2 (Homo sapiens)', '1.1%'),
  ('NS(=O)(=O)c1ccc(N/N=C2\C(=O)Nc3ccc(C(=O)NCCCn4ccnc4)cc32)cc1', 'Ribosomal protein S6 kinase alpha-2 (Homo sapiens)', '3.97%'),
  ('CS(=O)(=O)CCNCc1cc(-c2cc3c(Nc4ccc(OCc5cccc(F)c5)c(Cl)c4)ncnc3s2)cs1', 'Ribosomal protein S6 kinase alpha-2 (Homo sapiens)', '3.28%');
